The origin of these recorded values is patent US10670605B2.

What isoTOP-ABPP ratio O60825_C158 was measured for each of the following?
TESTED_ON: cysteines in MDA-MB-231 and Ramos cells (Homo sapiens)
Sequence (O60825 whole entry, the tested form may be a part): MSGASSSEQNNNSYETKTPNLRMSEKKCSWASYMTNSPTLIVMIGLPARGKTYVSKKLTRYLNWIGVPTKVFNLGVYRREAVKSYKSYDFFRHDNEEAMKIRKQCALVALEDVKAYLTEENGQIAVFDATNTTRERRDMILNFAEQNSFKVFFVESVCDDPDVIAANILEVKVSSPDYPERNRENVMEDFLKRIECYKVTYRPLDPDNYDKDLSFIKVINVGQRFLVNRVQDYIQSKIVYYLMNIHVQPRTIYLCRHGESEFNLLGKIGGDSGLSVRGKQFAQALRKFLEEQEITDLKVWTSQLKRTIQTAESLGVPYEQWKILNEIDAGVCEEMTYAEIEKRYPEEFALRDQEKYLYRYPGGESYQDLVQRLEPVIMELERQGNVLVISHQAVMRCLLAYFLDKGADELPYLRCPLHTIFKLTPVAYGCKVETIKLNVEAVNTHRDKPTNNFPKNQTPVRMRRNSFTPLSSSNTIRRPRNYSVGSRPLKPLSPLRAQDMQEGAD
MEASUREMENT_NOTES: Competitive isoTOP-ABPP in situ (fragment-treated cells)
Assay type: cell-based
MEASUREMENT_CONDITIONS: 200 μM, insitu, 231
Respond with the number and no other words.

Could you tell me which isoTOP-ABPP ratio O60825_C158 is on file for Cc1ccc(C=C(C#N)C(=O)NCCN2CCOCC2)cc1 ?
0.7

Could you tell me which isoTOP-ABPP ratio O60825_C158 is on file for O=C(CCl)NC(=O)NC12CC3CC(CC(C3)C1)C2 ?
0.8

Could you tell me which isoTOP-ABPP ratio O60825_C158 is on file for O=C(CCl)Nc1cccc2ncccc12 ?
0.9

Could you tell me which isoTOP-ABPP ratio O60825_C158 is on file for CC1CCc2ccccc2N1C(=O)CCl (stereo not drawn) ?
1.3

Could you tell me which isoTOP-ABPP ratio O60825_C158 is on file for O=C(CCl)N1CCN(S(=O)(=O)c2ccccc2F)CC1 ?
0.7

Could you tell me which isoTOP-ABPP ratio O60825_C158 is on file for O=C(CCl)NC12CC3CC(CC(C3)C1)C2 ?
1.4
